interaction score values for the binders below.
Biological target: T1, 4H63-AA
T1 chain: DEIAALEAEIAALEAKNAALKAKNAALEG
Test: two-hybrid library CCmax;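 also: natural log of median RNA to DNA barcode read ratio; higher means stronger binding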
Details: mean of both orientations
Form field (numeric): enter value without unit.

1. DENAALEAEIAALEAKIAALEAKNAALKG [4H1064-AA] : -1.29
2. DKNAALKAENAALKAEIAALEAKIAALKG [4H3782-AA] : -1.44

Kindly review the next binder as well.
// query Requested read-out: interaction score. Entry: DKIAALKAKNAALEAEIAALEAENAALEG [4H2947-AA]
// result -1.61
